# TARGET: hERG channel (Homo sapiens, UniProt Q12809)
# Construct: expressed in transfected cells; host or cells: CHO (Chinese hamster ovary)
# Sequence (Q12809 whole entry): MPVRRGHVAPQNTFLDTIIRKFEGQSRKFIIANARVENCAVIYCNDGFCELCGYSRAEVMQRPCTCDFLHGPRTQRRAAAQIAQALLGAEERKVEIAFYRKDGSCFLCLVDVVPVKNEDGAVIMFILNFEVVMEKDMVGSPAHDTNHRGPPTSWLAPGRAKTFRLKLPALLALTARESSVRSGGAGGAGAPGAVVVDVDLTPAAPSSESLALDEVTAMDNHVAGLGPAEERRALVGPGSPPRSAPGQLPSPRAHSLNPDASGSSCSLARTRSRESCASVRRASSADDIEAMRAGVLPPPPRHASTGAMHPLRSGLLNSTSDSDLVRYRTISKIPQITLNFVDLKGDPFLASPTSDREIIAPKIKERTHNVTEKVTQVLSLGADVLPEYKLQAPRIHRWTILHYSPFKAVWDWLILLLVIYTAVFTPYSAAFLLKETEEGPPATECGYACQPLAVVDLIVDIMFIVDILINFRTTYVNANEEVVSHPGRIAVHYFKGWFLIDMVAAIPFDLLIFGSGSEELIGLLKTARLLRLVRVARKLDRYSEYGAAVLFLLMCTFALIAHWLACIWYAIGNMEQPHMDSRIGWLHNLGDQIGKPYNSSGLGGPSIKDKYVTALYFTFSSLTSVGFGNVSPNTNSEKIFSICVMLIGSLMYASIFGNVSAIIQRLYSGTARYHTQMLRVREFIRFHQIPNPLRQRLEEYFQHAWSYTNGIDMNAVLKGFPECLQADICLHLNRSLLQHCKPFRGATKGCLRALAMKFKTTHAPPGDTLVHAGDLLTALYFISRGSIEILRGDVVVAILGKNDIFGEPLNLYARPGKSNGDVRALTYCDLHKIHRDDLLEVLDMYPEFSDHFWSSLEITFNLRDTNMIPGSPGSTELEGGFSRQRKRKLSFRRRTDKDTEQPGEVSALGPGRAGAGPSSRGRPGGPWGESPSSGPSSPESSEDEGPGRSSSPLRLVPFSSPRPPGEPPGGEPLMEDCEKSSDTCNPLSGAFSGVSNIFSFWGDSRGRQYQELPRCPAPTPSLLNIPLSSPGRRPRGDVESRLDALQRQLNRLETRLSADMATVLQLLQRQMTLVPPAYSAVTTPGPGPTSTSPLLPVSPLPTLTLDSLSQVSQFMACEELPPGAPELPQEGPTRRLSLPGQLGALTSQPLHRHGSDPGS
# TEST_PROTOCOL: hERG channel inhibition assay (patch-clamp, CHOhERG cells)
# Assay type: cell-based
# EXPERIMENTAL_PARAMETERS: safety ratio
VALUE_TYPE: hERG IC20/TLR8 IC50

C[C@@H]1CN(c2ccc(C#N)n3ncc(F)c23)C[C@H](CN2CCN(c3ccc(N4C[C@H]5NCCO[C@@H]5C4)nc3)CC2)O1    150
CO[C@H]1CN(c2nccc(N3CCN(C[C@H]4CN(c5ccc(C#N)c6nccnc56)C[C@@H](C)O4)CC3)n2)C[C@@H]1N    9000
C[C@@H]1CN(c2ccc(C#N)c3ncccc23)C[C@H](CN2CCN(c3ccc(Cl)cc3)CC2)O1 [Example R2, reference compound]    0.8

Problem: Using the record for [2H]c1ccc2c(N3C[C@H](CN4CCN(c5nc(C)cc(N6C[C@@H](N)[C@H](OC)C6)n5)CC4)O[C@H](C)C3)ccc(C#N)c2n1 , state its measured hERG IC20/TLR8 IC50.
Solution: >10000

Problem: Using the record for [2H]c1ccc2c(N3C[C@H](CN4CCN(c5ccc(N6CC(C)(N)C6)nc5)CC4)O[C@H](C)C3)ccc(C#N)c2n1 , state its measured hERG IC20/TLR8 IC50.
Solution: >625

Problem: Using the record for C[C@@H]1CN(c2ccc(C#N)c3nccnc23)C[C@H](CN2CCN(c3nccc(N4CC(N)C4)n3)CC2)O1 , state its measured hERG IC20/TLR8 IC50.
Solution: >10000

====

# TARGET: CYP3A4 (Homo sapiens)
# Construct: tissue BD-Gentest 452117; host or cells: human liver microsomes
# Sequence (P08684 whole entry): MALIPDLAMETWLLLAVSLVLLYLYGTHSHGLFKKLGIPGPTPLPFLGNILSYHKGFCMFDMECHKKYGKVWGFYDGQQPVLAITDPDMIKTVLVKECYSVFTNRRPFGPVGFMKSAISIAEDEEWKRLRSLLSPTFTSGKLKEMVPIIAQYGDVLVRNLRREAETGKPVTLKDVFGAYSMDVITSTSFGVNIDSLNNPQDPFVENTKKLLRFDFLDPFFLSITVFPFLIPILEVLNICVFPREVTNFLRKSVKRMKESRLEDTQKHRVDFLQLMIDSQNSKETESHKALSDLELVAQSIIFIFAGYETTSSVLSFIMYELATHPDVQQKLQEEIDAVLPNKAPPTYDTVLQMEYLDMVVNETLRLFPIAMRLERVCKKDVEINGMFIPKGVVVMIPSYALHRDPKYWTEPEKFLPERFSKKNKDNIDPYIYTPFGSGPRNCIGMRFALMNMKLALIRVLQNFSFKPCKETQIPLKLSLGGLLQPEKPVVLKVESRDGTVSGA
# TEST_PROTOCOL: CYP inhibition assay in human liver microsome, CYP3A4
# Type: in vitro ADME
# EXPERIMENTAL_PARAMETERS: human, human liver microsomes, probe midazolam 5 μM, substrate midazolam 5 μM, third value of 2C9/2D6/3A4
# Lookup of reported inhibition at 5 min, 10 µM keyed by entry
I only need the number, in %, no unit after it.

[2H]c1nc2c(C#N)ccc(N3C[C@H](CN4CCN(c5nc(C)cc(N6CC(N)C6)n5)CC4)O[C@H](C)C3)c2nc1[2H] [Example 124]    16
C[C@@H]1CN(c2ccc(C#N)n3ncc(F)c23)C[C@H](CN2CCN(c3ccc(N4CC(C)(N)C4)nc3)CC2)O1 [Example 154]    10.5

// next entry
Problem: Using the record for [2H]c1ccc2c(N3C[C@H](CN4CCN(c5ccc(N[C@H]6CNC[C@H]6F)nc5)CC4)O[C@H](C)C3)ccc(C#N)c2n1 [Example 162] , state its measured inhibition at 5 min, 10 µM.
Solution: 42.5

====

# TARGET: CYP3A4 (Homo sapiens)
# Construct: tissue BD-Gentest 452117; host or cells: human liver microsomes
# TEST_PROTOCOL: CYP inhibition assay in human liver microsome, CYP3A4
# Assay type: in vitro ADME
# EXPERIMENTAL_PARAMETERS: human, human liver microsomes, probe midazolam 5 μM, substrate midazolam 5 μM, third value of 2C9/2D6/3A4
# Protocol: This is a high throughput screening assay used for assessment of reversible inhibition of CYP2C9, CYP2D6, and CYP3A4 activity of test compounds in human liver microsome (HLM) in early discovery stage. 10 mM DMSO stock solutions of test compounds were diluted in DMSO to generate 2 mM intermediate stock solution. 250 nL, of intermediate stock solution were transferred in duplicate into 3 separate 384 well microtitre plates (assay-ready plates). A mixture of HLM and each substrate was made up. […]
VALUE_TYPE: inhibition at 5 min, 10 µM (%)
I only need the number, in %, no unit after it.

C[C@@H]1CN(c2ccc(C#N)c3ncccc23)C[C@H](CN2CCN(c3nccc(N4CCNCC4)n3)CC2)O1    -2
Cc1cc(N2CCN(C[C@H]3CN(c4ccc(C#N)c5nccnc45)C[C@@H](C)O3)CC2)nc(N2CC(N)C2)n1    -5
CO[C@@H]1CN(c2ccc(C3CN(C[C@H]4CN(c5ccc(C#N)n6ncc(F)c56)C[C@@H](C)O4)C3)cn2)C[C@H]1N    30.5

Problem: Using the record for CO[C@@H]1CN(c2ccc(N3CCN(C[C@H]4CN(c5ccc(C#N)n6ncc(F)c56)C[C@@H](C)O4)CC3)cn2)C[C@H]1N , state its measured inhibition at 5 min, 10 µM.
Solution: 35.5

Problem: Using the record for C[C@@H]1CN(c2ccc(C#N)n3ncc(F)c23)C[C@H](CN2CCN(c3ccc(N4CC5(CN(C)C5)C4)nc3)CC2)O1 , state its measured inhibition at 5 min, 10 µM.
Solution: -7

Problem: Using the record for [2H]c1ccc2c(N3C[C@H](CN4CCN(c5ccc(N6CC7(CNCCO7)C6)nc5)CC4)O[C@H](C)C3)ccc(C#N)c2n1 , state its measured inhibition at 5 min, 10 µM.
Solution: 35
